Each recorded value in this set is attributed to paper PMC12057046.

# study.target: USP8 Rhod domain (Homo sapiens, UniProt P40818)
# Construct: USP8 Rhod (174–317) (UniProt: P40818); GST (cleaved yes); made in house; host or cells: Escherichia coli BL21-Gold (DE3)
# Sequence (P40818 174-317): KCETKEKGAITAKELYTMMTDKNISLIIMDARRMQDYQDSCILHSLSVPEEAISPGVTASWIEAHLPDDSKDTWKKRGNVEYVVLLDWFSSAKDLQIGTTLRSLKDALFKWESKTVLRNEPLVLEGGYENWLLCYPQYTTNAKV
# assay.notes: Peptide-phage display-based deep mutational scanning (DMS), USP8 Rhod domain
# Format: binding
# stated.conditions: bait USP8_Rhodanese__P40818_174_317; wild-type/mutant pair ratio of averaged fractions; negative values where mutant fraction is higher
Each record is given Fulfilled if its reported hit_pair_ratio is strictly below 10. Records at or above 10 are given Not fulfilled.

Example entries begin here.
[[record]]
construct_sequence = "GLALWEAKMKQKAERA"
group = "Not fulfilled"

[[record]]
construct_sequence = "GLALWEAKMKQLAERG"
group = "Not fulfilled"

[[record]]
construct_sequence = "GLALWEAKMKQLAARA"
group = "Not fulfilled"

[[record]]
construct_sequence = "GLALWEAKMVQLAERA"
group = "Fulfilled"

[[record]]
construct_sequence = "GLALWEAKMKQFAERA"
group = "Not fulfilled"

[[record]]
construct_sequence = "GLALWEAKMKQLQERA"
group = "Fulfilled"

[[record]]
construct_sequence = "GLALWEAKMKHLAERA"
group = "Not fulfilled"

[[record]]
construct_sequence = "GLALWEAKMKQLAERF"
group = "Not fulfilled"

[[record]]
construct_sequence = "GLALWEAKMDQLAERA"
group = "Not fulfilled"

[[record]]
construct_sequence = "GLALWEAKMKQLAERT"
group = "Fulfilled"


stdin: Lab note: hit_pair_ratio threshold 10. Does this sequence come in strictly under it? `GLALWEAKMKQLAEYA`
stdout: Fulfilled

stdin: Lab note: hit_pair_ratio threshold 10. Does this sequence come in strictly under it? `GLALWEAKMKQLAERR`
stdout: Not fulfilled

stdin: Lab note: hit_pair_ratio threshold 10. Does this sequence come in strictly under it? `GLALWEAKMKQLAERM`
stdout: Not fulfilled

stdin: Lab note: hit_pair_ratio threshold 10. Does this sequence come in strictly under it? `GLALWEAKMGQLAERA`
stdout: Fulfilled

stdin: Lab note: hit_pair_ratio threshold 10. Does this sequence come in strictly under it? `GLALWEAKMKQLAYRA`
stdout: Not fulfilled

----------
# Test system: USP8 MIT domain
# assay.notes: Peptide-phage display-based deep mutational scanning (DMS), USP8 MIT domain
# Assay type: binding, human
# stated.conditions: sheet S3.B_ProP-PD_pairs; bait USP8_MIT__P40818_1_142; ratio within the wild-type/mutant pair, larger over smaller averaged fraction (direction from fraction_wt and fraction_mut)
# Description: The residues of these 16 amino acid-long wild-type peptides were substituted to all natural amino acid residues, except cysteine, in all positions (Supplementary Table S2A). […] The samples were prepared for NGS as previously described. […] The dsDNA was quantified using QuantiT PicoGreen dsDNA Assay Kit (Thermo Fisher) and sent for NGS (Illumina MiSeq v3, 1 × 150 bp read setup, 20% PhiX, NGI SciLifeLab facility, Sweden). […] The NGS data were analysed using custom Python scripts. […]
metric.name: hit_pair_ratio
Give the figure by itself; no unit, no explanation.

Solved entries:
[[record]]
construct_sequence = "MDDDYEWYHSLFLSLL"
metric_name = "hit_pair_ratio"
measurement = 1.12

[[record]]
construct_sequence = "SEESDIESRIAALRAA"
metric_name = "hit_pair_ratio"
measurement = 7.79

[[record]]
construct_sequence = "SLVSDIESRIAALRAA"
metric_name = "hit_pair_ratio"
measurement = 1.11

[[record]]
construct_sequence = "MDDDYEAYHSNFLSLL"
metric_name = "hit_pair_ratio"
measurement = 168.96

[[record]]
construct_sequence = "MDDDYEAYHSLFLSLF"
metric_name = "hit_pair_ratio"
measurement = 169.63


stdin: Entry `MDDDYEAYHTLFLSLL` : reported hit_pair_ratio = ?
stdout: 169.63

stdin: Entry `SVVSDIESRIAALRAA` : reported hit_pair_ratio = ?
stdout: 2.60

stdin: Entry `NEVSDIESRIAALRAA` : reported hit_pair_ratio = ?
stdout: 11.09

stdin: Entry `MDDDYEAYHSLFLSGL` : reported hit_pair_ratio = ?
stdout: 337.92

stdin: Entry `QEVSDIESRIAALRAA` : reported hit_pair_ratio = ?
stdout: 2.44

stdin: Entry `MDDDYEAYHPLFLSLL` : reported hit_pair_ratio = ?
stdout: 19.88

stdin: Entry `MDDDYEAYHSLFLYLL` : reported hit_pair_ratio = ?
stdout: 8.88

stdin: Entry `MDDDYEAYHSHFLSLL` : reported hit_pair_ratio = ?
stdout: 24.22

stdin: Entry `MDDDYEAYHSLFLLLL` : reported hit_pair_ratio = ?
stdout: 4.48

stdin: Entry `PEVSDIESRIAALRAA` : reported hit_pair_ratio = ?
stdout: 7.79

stdin: Entry `MDDDYEAYHSLYLSLL` : reported hit_pair_ratio = ?
stdout: 1.65

stdin: Entry `MDDDYEAYHWLFLSLL` : reported hit_pair_ratio = ?
stdout: 1.50

stdin: Entry `MDDDYEAYHSLALSLL` : reported hit_pair_ratio = ?
stdout: 337.92

----------
Each entry below lists one item and its recorded hit_pair_ratio value.
# System: USP8 MIT domain
# assay.notes: Peptide-phage display-based deep mutational scanning (DMS), USP8 MIT domain
# Assay type: binding, human
# stated.conditions: sheet S3.B_ProP-PD_pairs; bait USP8_MIT__P40818_1_142; ratio within the wild-type/mutant pair, larger over smaller averaged fraction (direction from fraction_wt and fraction_mut)

Solved entries:
[[record]]
construct_sequence = "MDDDYEAYHSLFLFLL"
measurement = 5.36

[[record]]
construct_sequence = "MDDDYEAVHSLFLSLL"
measurement = 48.27

[[record]]
construct_sequence = "YEVSDIESRIAALRAA"
measurement = 4.18

[[record]]
construct_sequence = "MDDDYEAYHSLFLSQL"
measurement = 337.92

[[record]]
construct_sequence = "SEPSDIESRIAALRAA"
measurement = 2.03


stdin: Entry `MDDDYEAYHSLFLHLL` : reported hit_pair_ratio = ?
stdout: 2.92

stdin: Entry `MDDDYEAYHSLFLSLK` : reported hit_pair_ratio = ?
stdout: 19.88

stdin: Entry `MDDDYEAYHSIFLSLL` : reported hit_pair_ratio = ?
stdout: 10.94

----------
Each entry below lists one item and its recorded Percentage (%) normalized to highest intensity and corrected for background value.
# System: USP8 MIT domain
# assay.notes: SPOT array of predicted peptides from known interactors, USP8 MIT domain
# Format: binding, human
# stated.conditions: SPOT array, GST-tagged MIT 100 µM, overnight 4 °C, chemiluminescence; highest intensity = DNAJB6
Give the quantity in %, number only.

[[record]]
construct_sequence = "NEWGNRFKKLADMYG [CDH1_863 − 877, Cadherin-1 peptide]"
unit_tag = "%"
measurement = 71

[[record]]
construct_sequence = "MVSWGRFICLVVVTM [FGFR2, Fibroblast growth factor receptor 2 peptide]"
unit_tag = "%"
measurement = 2.8

[[record]]
construct_sequence = "RGVLALALLALALC [RNF149, E3 ubiquitin-protein ligase RNF149 peptide]"
unit_tag = "%"
measurement = 3

[[record]]
construct_sequence = "RPHDIFRQRKQNT [VIRMA, Protein virilizer homolog peptide]"
unit_tag = "%"
measurement = 6.6

[[record]]
construct_sequence = "DDLSRRFEELKKKT [IST1, IST1 homolog peptide]"
unit_tag = "%"
measurement = 5

[[record]]
construct_sequence = "SRGLQLLLLSCAYS [CD83, CD83 antigen peptide]"
unit_tag = "%"
measurement = 5.58

[[record]]
construct_sequence = "SEENGLPLLVLPPP [SHANK1 A11, SHANK1 peptide, array position A11]"
unit_tag = "%"
measurement = -5.69

[[record]]
construct_sequence = "PQYTNLGLLNSMDQ [TP63 A14, Tumor protein 63 peptide, array position A14]"
unit_tag = "%"
measurement = 8


stdin: Entry YVDLDAFLLEHGLPPS [DBP116 − 131] : reported Percentage (%) normalized to highest intensity and corrected for background = ?
stdout: 67

----------
# study.target: USP8 Rhod domain (Homo sapiens, UniProt P40818)
# Construct: USP8 Rhod (174–317) (UniProt: P40818); GST (cleaved yes); made in house; host or cells: Escherichia coli BL21-Gold (DE3)
# assay.notes: ProP-PD selection against USP8 Rhod domain
# Type: binding
# stated.conditions: number of baits selections where the peptide has been observed, calculated on the domain level
# Protocol: We next evaluated the peptide binding of the Rhod domain by ProP-PD selections. […] (February 2025). […] The samples were prepared for NGS as previously described. […] The dsDNA was quantified using QuantiT PicoGreen dsDNA Assay Kit (Thermo Fisher) and sent for NGS (Illumina MiSeq v3, 1 × 150 bp read setup, 20% PhiX, NGI SciLifeLab facility, Sweden). […] The NGS data were analysed using custom Python scripts. […] Pearson correlation coefficient and p-value were calculated using Python’s SciPy library.
metric.name: Promiscuity
Give the figure by itself; no unit, no explanation.

Solved entries:
[[record]]
construct_sequence = "QPNHGLALWEAKMKQL [TET3 1701-1716, Methylcytosine dioxygenase TET3 peptide, overlapping]"
measurement = 2

[[record]]
construct_sequence = "YDTLIIRDYTQSSSSL [GRM5, Metabotropic glutamate receptor 5 peptide 1197-1212]"
measurement = 4

[[record]]
construct_sequence = "HIWHYDEEYLPDASKP [TTBK2, Tau-tubulin kinase 2 peptide 503-518]"
measurement = 7


Proceeding to the next sequence to report its Promiscuity.
stdin: Can you look up Promiscuity on USP8 Rhod domain (Homo sapiens, UniProt P40818) for LMNFLGDSNPFNLLRM [BCL11B, B-cell lymphoma/leukemia 11B peptide 279-294] ?
stdout: 6
